Below, each entry is listed alongside its reported Activity_index.
- EXPERIMENTAL_DETAILS: Mutagenicity in Salmonella typhimurium TA98 at 5 ug/plate preincubated for 20 mins followed by addition of top agar and measured after 48 hrs by Ames test
- Format: toxicity
- EXPERIMENTAL_CONTEXT: salmonella enterica subsp. enterica serovar typhimurium

SAMPLE_SMILES: CCOC(=O)N1CCN(Cc2cccc3c(=O)c4ccc(OC)cc4oc23)CC1.Cl.Cl
Activity_index: 0.76
--
SAMPLE_SMILES: CN1CCN(Cc2ccc3oc4ccc(Cl)cc4c(=O)c3c2)CC1
Activity_index: 1.04
--
SAMPLE_SMILES: Cl.Cl.O=c1c2ccccc2oc2c(CN3CCN(CCO)CC3)cccc12
Activity_index: 1.34
--
SAMPLE_SMILES: Cl.Cl.O=c1c2cc(Cl)ccc2oc2ccc(CN3CCN(CCOCCO)CC3)cc12
Activity_index: 1.03
